Where do these numbers come from? They come from patent US12583861B2.

Consider the following compounds and their measured EC50 readings.
STUDY TARGET: human TLR8 (Homo sapiens, UniProt Q9NR97)
Sequence (Q9NR97 27-1041): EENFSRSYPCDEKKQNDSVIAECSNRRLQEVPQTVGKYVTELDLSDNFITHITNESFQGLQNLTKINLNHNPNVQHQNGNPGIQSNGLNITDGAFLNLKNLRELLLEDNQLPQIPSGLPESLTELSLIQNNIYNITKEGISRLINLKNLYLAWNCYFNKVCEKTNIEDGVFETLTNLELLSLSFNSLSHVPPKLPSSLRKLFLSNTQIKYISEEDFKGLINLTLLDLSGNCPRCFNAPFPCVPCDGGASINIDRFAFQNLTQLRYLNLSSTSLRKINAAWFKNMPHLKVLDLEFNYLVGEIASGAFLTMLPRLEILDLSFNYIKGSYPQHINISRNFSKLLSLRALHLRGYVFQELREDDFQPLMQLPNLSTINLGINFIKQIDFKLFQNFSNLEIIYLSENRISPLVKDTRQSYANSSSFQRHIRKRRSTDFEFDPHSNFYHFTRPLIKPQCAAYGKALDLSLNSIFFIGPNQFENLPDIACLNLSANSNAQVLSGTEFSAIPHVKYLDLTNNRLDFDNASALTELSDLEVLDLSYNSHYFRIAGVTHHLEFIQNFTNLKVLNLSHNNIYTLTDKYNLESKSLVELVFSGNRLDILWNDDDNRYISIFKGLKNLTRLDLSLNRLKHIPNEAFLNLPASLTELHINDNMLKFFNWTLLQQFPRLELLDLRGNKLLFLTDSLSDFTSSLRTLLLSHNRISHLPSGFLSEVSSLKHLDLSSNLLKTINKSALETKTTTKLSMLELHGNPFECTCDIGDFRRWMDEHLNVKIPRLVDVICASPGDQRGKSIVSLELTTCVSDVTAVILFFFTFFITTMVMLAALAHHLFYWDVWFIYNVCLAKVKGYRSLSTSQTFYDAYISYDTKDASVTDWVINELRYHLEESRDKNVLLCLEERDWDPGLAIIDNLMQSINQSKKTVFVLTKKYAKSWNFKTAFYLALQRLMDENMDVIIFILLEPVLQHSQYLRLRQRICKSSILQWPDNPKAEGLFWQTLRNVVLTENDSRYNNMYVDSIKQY
ASSAY: HEK-Blue hTLR8 reporter cell assay (SEAP, NF-kB/AP-1) for stimulation of human TLR8
MEASUREMENT SETUP: HEK-Blue hTLR8 cells, 24 h incubation, SEAP readout; read-out: TLR8_EC50
Counter-ions that a name gives are not always drawn.

A selection of reference data follows.
CCCCc1nc2c(N)nnc(N(C)C)c2n1Cc1ccc(OC)cc1    > 20 µM
CCCCc1nc2c(N)nnc(OC(C)C)c2n1CCCCN [Compound 149, dihydrochloride salt]    > 20 µM
CCCCc1nc2c(N)nnc(OC(C)C)c2n1CC(C)(C)O    2.64 µM
CCCCc1nc2c(N)nnc(OC(C)C)c2n1CCCCN(C(C)=O)C1CS(=O)(=O)C1    > 20 µM

Problem: I'm curious: which EC50 was measured for CCCCc1nc2c(N)nnc(OC(C)C)c2n1Cc1ccc(C=O)cc1 tested on human TLR8 (Homo sapiens, UniProt Q9NR97)?
Solution: > 20 µM
